Biological target: T1, human IL-12 (human, UniProt P29460 23-328; P29459 23-219)
T1 construct: Recombinant (Peprotech); FLAG-tagged IL-12 in the flow cytometry assays, biotinylated in the IL-12Rβ2 assay; also called hIL-12
T1 sequence 1: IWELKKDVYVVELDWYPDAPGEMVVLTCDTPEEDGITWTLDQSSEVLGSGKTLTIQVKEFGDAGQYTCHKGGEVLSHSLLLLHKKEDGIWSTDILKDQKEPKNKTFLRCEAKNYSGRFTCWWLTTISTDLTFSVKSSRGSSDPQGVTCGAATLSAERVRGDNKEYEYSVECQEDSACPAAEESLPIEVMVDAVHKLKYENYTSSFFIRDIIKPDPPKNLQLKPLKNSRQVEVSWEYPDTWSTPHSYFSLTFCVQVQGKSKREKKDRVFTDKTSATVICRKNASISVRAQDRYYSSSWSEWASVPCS
T1 sequence 2: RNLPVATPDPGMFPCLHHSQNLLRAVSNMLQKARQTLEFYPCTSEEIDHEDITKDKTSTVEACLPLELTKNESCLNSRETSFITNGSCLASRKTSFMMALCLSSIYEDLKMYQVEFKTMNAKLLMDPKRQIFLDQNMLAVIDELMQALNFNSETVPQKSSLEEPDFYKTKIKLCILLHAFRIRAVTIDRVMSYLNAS
Test: SPR, purified scFv captured via FLAG
Give measured pKd for each item. Keep answers brief.
Note on pKd: it is the negative log10 of concentration, concentration in mol/L.

Q: Fill blank: measured pKd of the binder scFv CE-B1 (scFv, scFv-80 variant: VH F29L; not shown: proprietary C-terminal FLAG tag) scFv: QVQLVQSGAEVKKPGASVKVSCKASGYTLTDYYLHWVRQAPGQGLEWMGWIDPENGDTEYAPKFQGRVTMTTDTSTSTAYMELRSLRSDDTAVYYCNANKELRYFDVWGQGTMVTVSSGGGGSGGGGSGGGGSEIVMTQSPATLSVSPGERATLSCRASQSISINLHWYQQKPGQAPRLLIYFASQSISGIPARFSGSGSGTEFTLTISSLQSEDFAVYYCQQSNSFPLTFGGGTKVEIKR is ____.
Ans: 10.05

Q: Fill blank: measured pKd of the binder scFv AQ-G10 (scFv, scFv-80 variant: VH K12E, R66G; not shown: proprietary C-terminal FLAG tag) scFv: QVQLVQSGAEVEKPGASVKVSCKASGYTFTDYYLHWVRQAPGQGLEWMGWIDPENGDTEYAPKFQGGVTMTTDTSTSTAYMELRSLRSDDTAVYYCNANKELRYFDVWGQGTMVTVSSGGGGSGGGGSGGGGSEIVMTQSPATLSVSPGERATLSCRASQSISINLHWYQQKPGQAPRLLIYFASQSISGIPARFSGSGSGTEFTLTISSLQSEDFAVYYCQQSNSFPLTFGGGTKVEIKR is ____.
Ans: 9.46

Q: Fill blank: measured pKd of the binder scFv CP-A6 (scFv, scFv-80 variant: VH Y59H; not shown: proprietary C-terminal FLAG tag) scFv: QVQLVQSGAEVKKPGASVKVSCKASGYTFTDYYLHWVRQAPGQGLEWMGWIDPENGDTEHAPKFQGRVTMTTDTSTSTAYMELRSLRSDDTAVYYCNANKELRYFDVWGQGTMVTVSSGGGGSGGGGSGGGGSEIVMTQSPATLSVSPGERATLSCRASQSISINLHWYQQKPGQAPRLLIYFASQSISGIPARFSGSGSGTEFTLTISSLQSEDFAVYYCQQSNSFPLTFGGGTKVEIKR is ____.
Ans: 10.21
